Sourced from patent US7056679

study system: DGI-2 polypeptide (UniProt Q15004)
Sequence (Q15004 whole entry): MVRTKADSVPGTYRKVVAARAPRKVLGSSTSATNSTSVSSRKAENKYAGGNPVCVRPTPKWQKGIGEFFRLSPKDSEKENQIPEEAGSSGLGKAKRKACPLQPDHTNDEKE
assay: phage ELISA, 405 nm; DGI-2 signal over LDH signal
Each entry below carries its reported DGI-2/LDH (OD).
The answer should be a number; do not append a unit.

Some solved cases for reference:
Inquiry: Recorded DGI-2/LDH (OD) for DGI-2-40F-3-C10 (peptide, not shown: large carriers) peptide: WRARSSGYLFALTPNFGVPHPSSALRRMHGLMARDLRPVAAAGAPVPYPDPLEPRP , please?
Reply text: 1.3

Inquiry: Now consider DYKGRTMTSPIMSALPVYDRLHGAIGSRGQNMDAAAGAPVPYPDPLEPRP (peptide, not shown: large carriers) [DGI-2-20C-3-B3] .
Reply text: 0.9

Next:
Inquiry: Recorded DGI-2/LDH (OD) for DGI-2-40F-4-E1130 (peptide, not shown: large carriers) peptide: VCRLCRLCRFSMRCGGLSLVLGSAAAFFCEVFVGFCVAAAGAPVPYPDPLEPRP , please?
Reply text: 3.2

Inquiry: Now consider LGNASSLIPFLRSVQESGVRAAAGAPVPYPDPLEPRP (peptide, not shown: large carriers) [DGI-2-20F-3-C5] .
Reply text: 1

Inquiry: Now consider WFTHVVEKFAAAGAPVPYPDPLEPRP (peptide, not shown: large carriers) [DGI-2-40F-3-A4] .
Reply text: 1.3

Inquiry: Now consider GEVDCVYALTHRFLSPQVQYHHRPVAAAGAPVPYPDPLEPRP (peptide, not shown: large carriers) [DGI-2-20C-3-A12] .
Reply text: 1
